tgt: Sodium channel protein type 8 subunit alpha (Homo sapiens, UniProt Q9UQD0)
Sequence (Q9UQD0 whole entry): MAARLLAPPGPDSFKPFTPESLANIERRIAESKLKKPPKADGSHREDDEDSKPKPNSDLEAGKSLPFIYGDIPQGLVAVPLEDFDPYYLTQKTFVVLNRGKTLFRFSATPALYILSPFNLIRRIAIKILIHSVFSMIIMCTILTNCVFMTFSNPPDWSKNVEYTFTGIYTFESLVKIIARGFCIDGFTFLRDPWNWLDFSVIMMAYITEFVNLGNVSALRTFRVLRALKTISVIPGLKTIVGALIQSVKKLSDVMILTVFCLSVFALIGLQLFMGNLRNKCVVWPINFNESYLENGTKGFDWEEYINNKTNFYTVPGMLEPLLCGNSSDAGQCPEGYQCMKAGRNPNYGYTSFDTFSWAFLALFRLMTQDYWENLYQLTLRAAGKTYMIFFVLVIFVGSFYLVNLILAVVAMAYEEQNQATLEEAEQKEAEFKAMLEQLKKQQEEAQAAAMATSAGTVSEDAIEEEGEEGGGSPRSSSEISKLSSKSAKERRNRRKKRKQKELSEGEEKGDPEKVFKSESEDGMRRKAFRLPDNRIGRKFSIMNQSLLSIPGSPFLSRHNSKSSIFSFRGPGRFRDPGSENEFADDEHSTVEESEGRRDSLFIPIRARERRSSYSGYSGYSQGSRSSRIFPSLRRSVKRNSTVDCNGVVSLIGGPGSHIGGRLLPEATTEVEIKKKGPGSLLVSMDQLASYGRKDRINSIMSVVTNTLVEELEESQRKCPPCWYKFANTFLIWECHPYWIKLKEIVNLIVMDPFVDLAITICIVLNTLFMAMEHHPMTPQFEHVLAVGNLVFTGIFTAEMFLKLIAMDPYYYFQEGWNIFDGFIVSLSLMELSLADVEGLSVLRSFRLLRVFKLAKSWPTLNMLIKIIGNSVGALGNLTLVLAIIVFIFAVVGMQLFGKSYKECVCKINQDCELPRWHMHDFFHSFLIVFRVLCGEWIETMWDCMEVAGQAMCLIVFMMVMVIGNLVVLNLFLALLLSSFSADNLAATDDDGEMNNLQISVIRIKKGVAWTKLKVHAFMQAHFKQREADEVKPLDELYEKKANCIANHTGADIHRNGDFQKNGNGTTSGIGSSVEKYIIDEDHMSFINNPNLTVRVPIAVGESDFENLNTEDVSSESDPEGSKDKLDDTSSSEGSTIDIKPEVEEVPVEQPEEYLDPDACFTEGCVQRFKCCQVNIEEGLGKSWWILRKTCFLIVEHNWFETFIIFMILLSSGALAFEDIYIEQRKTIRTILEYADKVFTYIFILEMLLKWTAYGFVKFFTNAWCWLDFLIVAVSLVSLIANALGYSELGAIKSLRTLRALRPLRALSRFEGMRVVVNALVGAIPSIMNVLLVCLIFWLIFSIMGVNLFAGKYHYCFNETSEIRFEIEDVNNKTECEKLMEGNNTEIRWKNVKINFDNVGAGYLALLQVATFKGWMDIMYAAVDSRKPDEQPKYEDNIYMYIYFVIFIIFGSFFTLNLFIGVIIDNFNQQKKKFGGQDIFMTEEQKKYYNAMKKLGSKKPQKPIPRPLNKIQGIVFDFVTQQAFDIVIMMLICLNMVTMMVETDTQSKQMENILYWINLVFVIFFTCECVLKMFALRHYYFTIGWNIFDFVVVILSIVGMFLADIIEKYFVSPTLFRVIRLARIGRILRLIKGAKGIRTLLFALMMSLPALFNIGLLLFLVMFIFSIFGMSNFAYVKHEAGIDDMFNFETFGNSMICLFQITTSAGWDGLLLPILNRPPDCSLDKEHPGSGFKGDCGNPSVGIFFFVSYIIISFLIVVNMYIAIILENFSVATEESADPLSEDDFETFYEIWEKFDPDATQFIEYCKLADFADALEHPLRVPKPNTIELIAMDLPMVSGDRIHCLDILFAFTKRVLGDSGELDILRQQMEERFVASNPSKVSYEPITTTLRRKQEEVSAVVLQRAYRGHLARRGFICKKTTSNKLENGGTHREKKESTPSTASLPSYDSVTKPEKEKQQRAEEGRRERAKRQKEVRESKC
method_description: Inhibition of human Nav1.6 expressed in HEK293 cells assessed as reduction in peak inward current by manual whole cell patch clamp electrophysiology assay
measurement_kind: pIC50
Give only the number. pIC50 is defined as minus log10 of concentration in molar units.

Query: Field request: pIC50 | item: "COc1cc(C(=O)NS(C)(=O)=O)c(F)cc1-c1cnc(Oc2cc(F)ccc2F)c(Cl)c1"
Reply: 5.03

----------
method_description: AUC (infinity) in Harlan rat at 1 mg/kg, iv by LC-MS/MS analysis
Assay type: ADME, organism-based
Design: dose 1 mg/kg, route intravenous, time infinity
condition_context: in vivo
measurement_kind: AUC(0-inf) (µM·h)
# output: bare number, implied unit µM·h

Query: Field request: AUC(0-inf) | item: "COc1cc(C(=O)NS(C)(=O)=O)c(F)cc1-c1cnc(Oc2cc(F)ccc2F)c(Cl)c1"
Reply: 5.4

----------
method_description: physchem
condition_context: PBS, pH 7.4
measurement_kind: solubility thermodynamic at 24 h (µM)
# output: bare number, implied unit µM

Query: Field request: solubility thermodynamic at 24 h | item: "COc1cc(C(=O)NS(C)(=O)=O)c(F)cc1-c1cnc(Oc2cc(F)ccc2F)c(Cl)c1"
Reply: 398

----------
Please provide measured clearance for the entries that follow.
method_description: Clearance in Harlan rat at 1 mg/kg, iv by LC-MS/MS analysis
Assay type: ADME, organism-based
condition_context: in vivo
# output: bare number, implied unit mL/min/kg

Query: Field request: clearance | item: "COc1cc(C(=O)NS(C)(=O)=O)ccc1-c1cnc(Oc2cc(Cl)cc(Cl)c2)c(C#N)c1"
Reply: 30

Query: Field request: clearance | item: "COc1cc(C(=O)NS(C)(=O)=O)c(F)cc1-c1cnc(Oc2cc(F)ccc2F)c(Cl)c1"
Reply: 6.5

----------
tgt: Sodium channel protein type 9 subunit alpha (Homo sapiens)
Sequence (Q15858 whole entry): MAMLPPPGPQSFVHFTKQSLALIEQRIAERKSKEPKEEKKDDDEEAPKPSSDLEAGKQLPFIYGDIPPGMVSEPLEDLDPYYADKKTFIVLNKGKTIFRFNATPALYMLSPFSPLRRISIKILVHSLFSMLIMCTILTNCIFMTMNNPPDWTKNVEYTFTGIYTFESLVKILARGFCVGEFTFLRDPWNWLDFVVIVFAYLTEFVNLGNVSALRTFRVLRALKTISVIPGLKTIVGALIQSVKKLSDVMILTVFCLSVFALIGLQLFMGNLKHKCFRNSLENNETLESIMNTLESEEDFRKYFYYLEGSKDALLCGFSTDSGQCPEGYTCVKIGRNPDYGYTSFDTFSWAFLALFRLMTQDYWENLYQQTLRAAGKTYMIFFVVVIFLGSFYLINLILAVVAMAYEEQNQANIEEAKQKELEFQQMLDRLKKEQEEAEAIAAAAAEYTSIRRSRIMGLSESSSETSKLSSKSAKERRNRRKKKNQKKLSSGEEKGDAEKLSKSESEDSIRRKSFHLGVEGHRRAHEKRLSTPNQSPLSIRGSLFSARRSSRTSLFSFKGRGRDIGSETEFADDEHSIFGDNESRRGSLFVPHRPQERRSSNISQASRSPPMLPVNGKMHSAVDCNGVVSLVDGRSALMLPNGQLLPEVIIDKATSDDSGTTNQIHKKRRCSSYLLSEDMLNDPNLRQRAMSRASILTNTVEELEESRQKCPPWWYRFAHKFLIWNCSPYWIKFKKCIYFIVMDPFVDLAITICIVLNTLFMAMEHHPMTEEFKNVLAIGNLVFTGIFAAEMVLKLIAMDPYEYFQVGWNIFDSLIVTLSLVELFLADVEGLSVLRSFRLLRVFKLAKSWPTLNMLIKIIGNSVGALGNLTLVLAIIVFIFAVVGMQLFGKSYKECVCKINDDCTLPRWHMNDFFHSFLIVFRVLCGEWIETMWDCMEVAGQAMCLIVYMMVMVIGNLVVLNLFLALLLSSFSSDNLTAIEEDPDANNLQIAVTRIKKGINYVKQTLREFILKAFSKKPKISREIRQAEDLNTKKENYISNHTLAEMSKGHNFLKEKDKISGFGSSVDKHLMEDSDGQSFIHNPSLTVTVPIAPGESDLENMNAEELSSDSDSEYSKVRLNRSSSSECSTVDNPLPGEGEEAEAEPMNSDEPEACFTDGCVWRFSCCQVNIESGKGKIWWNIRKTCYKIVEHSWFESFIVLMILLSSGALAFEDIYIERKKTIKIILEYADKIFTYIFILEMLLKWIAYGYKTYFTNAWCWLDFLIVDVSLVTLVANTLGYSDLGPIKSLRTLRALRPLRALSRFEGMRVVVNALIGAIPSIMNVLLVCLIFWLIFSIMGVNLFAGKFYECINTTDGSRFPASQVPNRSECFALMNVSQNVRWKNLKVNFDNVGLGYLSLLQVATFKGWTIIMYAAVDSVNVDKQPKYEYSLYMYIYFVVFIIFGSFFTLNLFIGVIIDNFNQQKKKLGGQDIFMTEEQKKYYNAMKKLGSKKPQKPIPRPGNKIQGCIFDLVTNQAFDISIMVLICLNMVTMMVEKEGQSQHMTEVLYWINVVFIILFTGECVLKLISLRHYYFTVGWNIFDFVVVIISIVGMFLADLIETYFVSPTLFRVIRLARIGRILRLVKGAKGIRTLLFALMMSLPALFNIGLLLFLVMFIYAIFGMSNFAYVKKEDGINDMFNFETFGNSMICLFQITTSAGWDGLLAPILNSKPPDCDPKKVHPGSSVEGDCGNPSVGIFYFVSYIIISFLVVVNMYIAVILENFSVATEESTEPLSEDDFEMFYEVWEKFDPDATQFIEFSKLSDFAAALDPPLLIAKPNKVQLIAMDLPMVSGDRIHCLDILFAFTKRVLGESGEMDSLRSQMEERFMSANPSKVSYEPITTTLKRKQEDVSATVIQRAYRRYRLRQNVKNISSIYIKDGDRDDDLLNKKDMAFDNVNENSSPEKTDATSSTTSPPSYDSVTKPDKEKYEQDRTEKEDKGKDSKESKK
method_description: Inhibition of human Nav1.7 expressed in HEK293 cells incubated for 3 to 5 mins at -125 mV holding potential by electrophysiology assay
Assay type: cell-based
Please provide measured IC50 for the entries that follow.

Query: Requested read-out IC50, target or system Sodium channel protein type 9 subunit alpha (Homo sapiens), entry "COc1cc(C(=O)NS(C)(=O)=O)ccc1-c1cnc(Oc2cc(Cl)cnc2OC)c(Cl)c1"
Reply: 0.15 µM

Query: Requested read-out IC50, target or system Sodium channel protein type 9 subunit alpha (Homo sapiens), entry "CC(C)COc1ncc(-c2ccc(C(=O)NS(C)(=O)=O)cc2C(=O)N(C)C)cc1Cl"
Reply: > 42 µM

Query: Requested read-out IC50, target or system Sodium channel protein type 9 subunit alpha (Homo sapiens), entry "CC(C)COc1ncc(-c2ccc(C(=O)NS(C)(=O)=O)c(Cl)c2)cc1Cl"
Reply: > 42 µM

Query: Requested read-out IC50, target or system Sodium channel protein type 9 subunit alpha (Homo sapiens), entry "O=S(=O)(Nc1ncns1)c1ccc2c(-c3ccc(C(F)(F)F)c(Cl)c3)nccc2c1"
Reply: 0.59 µM

Query: Requested read-out IC50, target or system Sodium channel protein type 9 subunit alpha (Homo sapiens), entry "CS(=O)(=O)NC(=O)c1ccc2c(Oc3ccc(Cl)c(C(F)(F)F)c3)nccc2c1"
Reply: 0.28 µM

Query: Requested read-out IC50, target or system Sodium channel protein type 9 subunit alpha (Homo sapiens), entry "CC(C)COc1ncc(-c2ccc(C(=O)NS(C)(=O)=O)c(F)c2)cc1Cl"
Reply: 3.04 µM

Query: Requested read-out IC50, target or system Sodium channel protein type 9 subunit alpha (Homo sapiens), entry "CS(=O)(=O)NC(=O)c1cc(F)c(Oc2ccc(Cl)c(Cl)c2)cc1F"
Reply: 0.74 µM

Query: Requested read-out IC50, target or system Sodium channel protein type 9 subunit alpha (Homo sapiens), entry "CC(C)COc1ncc(-c2ncc(C(=O)NS(C)(=O)=O)cc2F)cc1Cl"
Reply: 10.6 µM

Query: Requested read-out IC50, target or system Sodium channel protein type 9 subunit alpha (Homo sapiens), entry "CS(=O)(=O)NC(=O)c1cc(F)c(-c2ccc(Cl)c(Cl)c2)cc1F"
Reply: 2.54 µM

Query: Requested read-out IC50, target or system Sodium channel protein type 9 subunit alpha (Homo sapiens), entry "COc1cc(C(=O)NS(C)(=O)=O)ccc1-c1cnc(OCC2(C)CC2)c(Cl)c1"
Reply: 0.2 µM
